System: 134 cancer cell lines
PROTOCOL NOTES: Cell viability assay (ATPlite, 72 hours), IC50 on cancer cell line panel
ASSAY CONDITIONS: Homo sapiens, G-361, read-out: IC50 in cell proliferation assay, cell line G-361 (BRAF p.V600E)
Parameter IC50: see the listing below.
MEASUREMENT NAME: IC50 (µM)

>>> observed("Cc1cc(Nc2ncnc3ccc(NC4=NC(C)(C)CO4)cc23)ccc1Oc1ccn2ncnc2c1")
13.5
>>> observed("FC(F)(F)c1ccc(CNc2ccc(Cc3c[nH]c4ncc(Cl)cc34)cn2)cn1")
23.6
>>> observed("COc1ccc(CN2C3CC2CN(c2ccc(-c4cc(OCC(C)(C)O)cn5ncc(C#N)c45)cn2)C3)cn1")
5.87
>>> observed("CC(C)(C)c1nc(-c2cccc(NS(=O)(=O)c3c(F)cccc3F)c2F)c(-c2ccnc(N)n2)s1")
0.047
>>> observed("CO[C@]1(C(=O)N[C@@H](C)c2ccc(-n3cc(F)cn3)nc2)CC[C@H](c2nc(C)cc(Nc3cc(C)[nH]n3)n2)CC1")
17.6
>>> observed("Cc1nc(NC(=O)N2CCC[C@H]2C(N)=O)sc1-c1ccnc(C(C)(C)C(F)(F)F)c1")
16.6
>>> observed("CN1CCN(c2ccc(C(=O)Nc3n[nH]c4ccc(Cc5cc(F)cc(F)c5)cc34)c(NC3CCOCC3)c2)CC1")
4.67

Sourced from paper PMC9516332
